Test system: SK-OV-3 ovarian
Assay: NCI tumour cell line growth inhibition, 48 h; in the data active = GI50 below about 0.43 µM; inactive = the rest
Possible outcomes: active, inactive

1) C/C=C(\C)C(=O)NC1=CC[C@@]2(C)C(=CCC3C2CC[C@@]2(C)C3CC[C@@H]2C(C)N(C)C)C1=O (some centres not stated) | inactive
2) CCCCON(OC(=O)c1ccc2ccccc2c1)C(=O)c1ccccc1 | inactive
3) CN(CCO)CC[C@H](CSc1ccccc1)Nc1ccc(S(=O)(=O)NC(=O)c2ccc(N3CCC([C@@H](O)c4ccccc4-c4ccc(Cl)cc4)CC3)cc2)cc1S(=O)(=O)C(F)(F)F | inactive
4) CN(O)C(=O)SCC(NC(=O)CCC(N)C(=O)O)C(=O)NCC(=O)O (configuration not stated) | inactive
5) CCN(Cc1cc(Nc2nc(C)cn3c(-c4cn[nH]c4)cnc23)sn1)C(C)(C)CO | active
6) N.N.N.N.N.NC(=O)c1nn[n-]n1.[Cl-].[Co+3] | inactive
7) CC1(C)C2CCC13C(=O)C1OC3(C2)C2C(=O)c3cc4ccccc4cc3C(=O)C12 (configuration not stated) | inactive
8) O=C(Oc1cccc(F)c1OC(=O)c1cccc(O)c1)c1cccc(O)c1 | inactive
9) C=C1C(=O)O[C@H]2[C@H]1CC/C(CNC(=O)/C=C/c1cc(OC)c(OC)c(OC)c1)=C\CC[C@@]1(C)O[C@@H]21 | inactive
10) C[C@@]1(C(=O)O)CCC[C@]2(C)C1CC[C@@]13CC(=O)[C@@](CO)(CC[C@]12O)C3 (some centres not stated) | inactive
11) CCOC(=O)Nc1ccc2c(c1)/C(=N\NC(N)=S)c1ccccc1-2 | inactive
12) OC(Cc1ccncc1)C(Cl)(Cl)Cl (configuration not stated) | inactive
13) C[C@H](NC(=O)[C@@H](C)N)[C@H](Oc1ccc2c(cnn2-c2ccc(F)cc2)c1)c1ccc2c(c1)OCCO2 | active
14) CCN(Cc1ccc(Cl)cc1)c1ccc(CO)c(Cl)c1 | inactive
15) ClCc1cccc2c(CCl)cccc12 | inactive
16) CN1CCC2(CC1)ONC1=NCCN12 | inactive
17) C=CCN=c1sc2c(n1NC(=O)c1cc3ccc1CCc1ccc(cc1)CC3)C(=O)c1ccccc1C2=O | inactive

* * *

Tested on: RXF 393 renal
Assay: NCI tumour cell line growth inhibition, 48 h
Entries annotated with measured TGI
MEASUREMENT TYPE: TGI (µM)

1) C=C(CN1C(=O)CN(C)C1=O)c1ccc(C(=O)Nc2ccccc2N)cc1 | 67.2
2) CC1=C(c2ccccc2)C(c2ccccc2)=C(c2ccccc2)C2(c3ccccc3)C(=O)C(C)CN12 (stereo not drawn) | 63.5
3) C=C1C(=O)O[C@H]2[C@H]1CC/C(COC(=O)CSCSCC(=O)OC/C1=C/CC[C@@]3(C)O[C@H]3[C@H]3OC(=O)C(=C)[C@@H]3CC1)=C\CC[C@@]1(C)O[C@@H]21 | 2.83
4) CCN(CC)c1c(C(=O)/C=C/c2ccc(Cl)cc2)c(-c2ccccc2)nn(C)c1=O | 2.8
5) N#CN=[N+]([O-])c1ccc(C(=O)O)cc1 | 30.1
6) CC(=O)C1(Cc2cccc3ccccc23)S(=O)(=O)OCCOS1(=O)=O | 26.7
7) C[C@]12C[C@H](CCCCCCNCCOC(=O)NCCCc3ccc(N(CCCl)CCCl)cc3)C3=C4CCC(=O)C=C4CCC3C1CC[C@@H]2O (stereo partly drawn) | 1.21
8) Fc1ccc(C2CC(c3cccc(Nc4ccncc4)c3)=NN2c2ccc(Cl)cc2)cc1 (stereo not drawn) | 3
9) O=c1cc(-c2ccccc2)[nH]c2ccc(N3CCOCC3)cc12 | 46.5

* * *

Test system: OVCAR-3 ovarian
Test: NCI tumour cell line growth inhibition, 48 h
Entries annotated with measured GI50
MEASUREMENT TYPE: GI50

1. COc1ncnc2c(-c3ccccc3)cn(COCc3ccccc3)c12 | 5090 nM
2. C[C@]12CC[C@@H]3c4ccc(OC(=O)N(CCCl)CCCl)cc4CC[C@H]3[C@@H]1CC[C@@H]2O | 691 nM
3. CCCCCCCCNc1cc2c3c(c1)CCCN3CCC2 | 1550 nM
4. C=CCN=c1sc2c(n1NC(=O)c1cc3ccc1CCc1ccc(cc1)CC3)C(=O)c1ccccc1C2=O | 328 nM
5. C=C(CN1C(=O)CN(C)C1=O)c1ccc(C(=O)Nc2ccccc2N)cc1 | 24800 nM

* * *

Tested on: PC-3 prostate
Assay: NCI tumour cell line growth inhibition, 48 h; in the data active = GI50 below about 0.43 µM; inactive = the rest
Possible outcomes: active, inactive

1) COc1ccc2[nH]cc(-c3ccc(-c4c[nH]c5ccc(OC)cc45)s3)c2c1 | inactive
2) CCCCCCCCNc1cc2c3c(c1)CCCN3CCC2 | inactive
3) COc1ccc(/C=C/C(=O)c2cc(OC)c(OC)c(OC)c2)cc1OCc1cn(Cc2ccc(F)cc2)nn1 | inactive
4) C[C@@]1(C(=O)O)CCC[C@]2(C)C1CC[C@@]13CC(=O)[C@@](CO)(CC[C@]12O)C3 (stereo partly specified) | inactive
5) NS(=O)(=O)c1ccc(-n2nc(-c3ccc(Cl)cc3)cc2-c2cc(O)ccc2O)cc1 | inactive
6) CCOC(=O)/C(C=Nc1ccc(-c2nc3ccccc3[nH]2)cc1)=C(/C)O | inactive
7) Clc1nc(Cl)c2ncn(CC3(Cn4cnc5c(Cl)nc(Cl)nc54)COC3)c2n1 | active
8) ClCc1cccc2c(CCl)cccc12 | inactive
9) C=C(CN1C(=O)CN(C)C1=O)c1ccc(C(=O)Nc2ccccc2N)cc1 | inactive
10) O=C1C(Cl)=C(Nc2cccc(Cl)c2)C(=O)N1Cc1ccc(Cl)cc1 | inactive
11) COc1cccc(N2CCN(CC(=O)N3CCN(c4nnc(-c5ccc(Cl)cc5)c(-c5ccc(Cl)cc5)n4)CC3)CC2)c1 | inactive
12) Oc1c(-c2nnc(-c3ccccc3Cl)o2)sc2nnc(-c3ccccc3)c(-c3ccccc3)c12 | inactive
13) C[C@]12C[C@H](CCCCCCNCCOC(=O)NCCCc3ccc(N(CCCl)CCCl)cc3)C3=C4CCC(=O)C=C4CCC3C1CC[C@@H]2O (stereo partly specified) | inactive
14) CCOC(=O)N1CCN(/[N+]([O-])=N/Oc2ccc([N+](=O)[O-])cc2[N+](=O)[O-])CC1 | inactive
15) O=C(Oc1cccc(F)c1OC(=O)c1cccc(O)c1)c1cccc(O)c1 | inactive
16) O.O.[NH-]C1(C(=O)O)CCCC1.[NH-]C1(C(=O)O)CCCC1.[Ni+2] | inactive

* * *

System: KM12 colon
Assay: NCI tumour cell line growth inhibition, 48 h; in the data active means GI50 below about 0.43 µM; inactive means the rest
Possible outcomes: label 1 for active, label 0 for inactive

1. C=C1C(=O)O[C@H]2[C@H]1CC/C(CNC(=O)/C=C/c1cc(OC)c(OC)c(OC)c1)=C\CC[C@@]1(C)O[C@@H]21 | label 0
2. CCCCCCCCNc1cc2c3c(c1)CCCN3CCC2 | label 0
3. COc1ccc(C(=S)N2CCN(c3cccc(C)c3)CC2)cc1OC | label 0
4. ClCc1cccc2c(CCl)cccc12 | label 0
5. N=C1C(c2nc3ccccc3s2)=C(O)CN1c1ccc(F)c(Cl)c1 | label 0
6. C[C@H](NC(=O)[C@@H](C)N)[C@H](Oc1ccc2c(cnn2-c2ccc(F)cc2)c1)c1ccc2c(c1)OCCO2 | label 0
7. CCCCON(OC(=O)c1ccc2ccccc2c1)C(=O)c1ccccc1 | label 0
8. N.N.N.N.N.NC(=O)c1nn[n-]n1.[Cl-].[Co+3] | label 0
9. NS(=O)(=O)c1ccc(-n2nc(-c3ccc(Cl)cc3)cc2-c2cc(O)ccc2O)cc1 | label 0
10. COc1ncnc2c(-c3ccccc3)cn(COCc3ccccc3)c12 | label 0
11. CN(O)C(=O)SCC(NC(=O)CCC(N)C(=O)O)C(=O)NCC(=O)O (stereo not drawn) | label 0
12. O=c1[nH]c(=O)c2cn[nH]c2[nH]1 | label 0
13. CC(=O)NC1C(OC[C@@H](CC(=O)N[C@@H](CC(=O)O)CC(=O)N[C@H](CC(=O)N[C@@H](CCCN)CC(=O)N[C@@H](CCCN)CC(=O)N[C@H](CC(N)=O)C(C)C)C(C)C)NC(=O)C[C@@H](N)C(C)C)OC(CO)C(O)C1O (stereo partly drawn) | label 0
14. COc1ccc2[nH]cc(-c3ccc(-c4c[nH]c5ccc(OC)cc45)s3)c2c1 | label 0
15. C/C=C(\C)C(=O)NC1=CC[C@@]2(C)C(=CCC3C2CC[C@@]2(C)C3CC[C@@H]2C(C)N(C)C)C1=O (stereo partly drawn) | label 0
16. Clc1nc(Cl)c2ncn(CC3(Cn4cnc5c(Cl)nc(Cl)nc54)COC3)c2n1 | label 1
17. N#Cc1ccc(OCc2nc(N)nc(N)c2-c2ccc(Cl)c(Cl)c2)cc1 | label 0
18. COC(=O)c1ccc(-c2nc3cc(Cl)c(Cl)cc3nc2C#N)cc1 | label 0
